Molecular target: T1, Biotinylated human DLL3 (human, UniProt Q9NYJ7 27-492, biotinylated (site not stated))
T1 construct: also called Delta-like ligand 3; Delta Like Canonical Notch Ligand 3
T1 sequence (looked up): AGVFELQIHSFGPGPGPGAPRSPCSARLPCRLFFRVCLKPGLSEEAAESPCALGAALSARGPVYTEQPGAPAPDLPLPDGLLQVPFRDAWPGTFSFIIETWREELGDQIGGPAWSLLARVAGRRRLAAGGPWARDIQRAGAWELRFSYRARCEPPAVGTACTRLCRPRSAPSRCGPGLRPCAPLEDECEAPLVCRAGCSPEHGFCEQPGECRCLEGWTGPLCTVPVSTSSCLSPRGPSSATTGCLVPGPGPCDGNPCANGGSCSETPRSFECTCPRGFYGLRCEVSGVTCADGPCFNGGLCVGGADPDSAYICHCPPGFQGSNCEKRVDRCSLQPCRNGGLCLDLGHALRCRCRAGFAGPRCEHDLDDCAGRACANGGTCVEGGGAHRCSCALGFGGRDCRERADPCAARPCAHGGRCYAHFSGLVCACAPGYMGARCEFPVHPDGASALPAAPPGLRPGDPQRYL
Assay: SPR, biotin-hDLL3 on SA chip
Bridge positions count the residues as written; N and C are the ends. Square brackets hold non-standard residues; d marks the D form. * marks the point of attachment. DOTA = O=C(O)CN1CCN(CC(=O)O)CCN(CC(=O)*)CCN(CC(=O)O)CC1; Trp(7-aza) = N[C@@H](Cc1c[nH]c2ncccc12)C(=O)O; 1Nal = N[C@@H](Cc1cccc2ccccc12)C(=O)O; tBuAla = CC(C)(C)C[C@H](N)C(=O)O; Chg = N[C@H](C(=O)O)C1CCCCC1
measurement-label: Kd (nM)
Lab book: enter the figure in nM, no units written.

Before answering, review these 2 worked examples.
binder	measure-unit	Kd
Ac-[Chg]SK(DOTA)CWLQWNCPFD-NH2 (disulfide 4-10; SMILES CC(=O)N[C@H](C(=O)N[C@@H](CO)C(=O)N[C@@H](CCCCNC(=O)CN1CCN(CC(=O)O)CCN(CC(=O)O)CCN(CC(=O)O)CC1)C(=O)N[C@H]1CSSC[C@@H](C(=O)N2CCC[C@H]2C(=O)N[C@@H](Cc2ccccc2)C(=O)N[C@@H](CC(=O)O)C(N)=O)NC(=O)[C@H](CC(N)=O)NC(=O)[C@H](Cc2c[nH]c3ccccc23)NC(=O)[C@H](CCC(N)=O)NC(=O)[C@H](CC(C)C)NC(=O)[C@H](Cc2c[nH]c3ccccc23)NC1=O)C1CCCCC1) [Cpd #96]	nM	145
Ac-[dA][dS]DC[1Nal]LQWNCPFD[dK](DOTA)-NH2 (disulfide 4-10) [Cpd #108]	nM	2.89

Ask: // query Kd value for entry Ac-M[dA]DCWLQWNCPFD-NH2 (disulfide 4-10; SMILES CSCC[C@H](NC(C)=O)C(=O)N[C@H](C)C(=O)N[C@@H](CC(=O)O)C(=O)N[C@H]1CSSC[C@@H](C(=O)N2CCC[C@H]2C(=O)N[C@@H](Cc2ccccc2)C(=O)N[C@@H](CC(=O)O)C(N)=O)NC(=O)[C@H](CC(N)=O)NC(=O)[C@H](Cc2c[nH]c3ccccc23)NC(=O)[C@H](CCC(N)=O)NC(=O)[C@H](CC(C)C)NC(=O)[C@H](Cc2c[nH]c3ccccc23)NC1=O) [Cpd #9]
Reply: 35.1

Ask: // query Kd value for entry Ac-SK(DOTA)CWLQWNCPFD-NH2 (disulfide 3-9; SMILES CC(=O)N[C@@H](CO)C(=O)N[C@@H](CCCCNC(=O)CN1CCN(CC(=O)O)CCN(CC(=O)O)CCN(CC(=O)O)CC1)C(=O)N[C@H]1CSSC[C@@H](C(=O)N2CCC[C@H]2C(=O)N[C@@H](Cc2ccccc2)C(=O)N[C@@H](CC(=O)O)C(N)=O)NC(=O)[C@H](CC(N)=O)NC(=O)[C@H](Cc2c[nH]c3ccccc23)NC(=O)[C@H](CCC(N)=O)NC(=O)[C@H](CC(C)C)NC(=O)[C@H](Cc2c[nH]c3ccccc23)NC1=O) [Cpd #91]
Reply: 95.7

Ask: // query Kd value for entry Ac-SDCWLK(DOTA)WNCPFD-NH2 (disulfide 3-9) [Cpd #87]
Reply: 33.3

Ask: // query Kd value for entry Ac-MSDCWLAWNCPFD-NH2 (disulfide 4-10; SMILES CSCC[C@H](NC(C)=O)C(=O)N[C@@H](CO)C(=O)N[C@@H](CC(=O)O)C(=O)N[C@H]1CSSC[C@@H](C(=O)N2CCC[C@H]2C(=O)N[C@@H](Cc2ccccc2)C(=O)N[C@@H](CC(=O)O)C(N)=O)NC(=O)[C@H](CC(N)=O)NC(=O)[C@H](Cc2c[nH]c3ccccc23)NC(=O)[C@H](C)NC(=O)[C@H](CC(C)C)NC(=O)[C@H](Cc2c[nH]c3ccccc23)NC1=O) [Cpd #24]
Reply: 4.9

Ask: // query Kd value for entry Ac-MSDCW[tBuAla]QWNCPFD[dK](DOTA)-NH2 (disulfide 4-10) [Cpd #67]
Reply: 4.03

Ask: // query Kd value for entry Ac-MSACWLQWNCPFD-NH2 (disulfide 4-10; SMILES CSCC[C@H](NC(C)=O)C(=O)N[C@@H](CO)C(=O)N[C@@H](C)C(=O)N[C@H]1CSSC[C@@H](C(=O)N2CCC[C@H]2C(=O)N[C@@H](Cc2ccccc2)C(=O)N[C@@H](CC(=O)O)C(N)=O)NC(=O)[C@H](CC(N)=O)NC(=O)[C@H](Cc2c[nH]c3ccccc23)NC(=O)[C@H](CCC(N)=O)NC(=O)[C@H](CC(C)C)NC(=O)[C@H](Cc2c[nH]c3ccccc23)NC1=O) [Cpd #21]
Reply: 80

Ask: // query Kd value for entry Ac-[dE]SDCWLQWNCPFD[dK](DOTA)-NH2 (disulfide 4-10) [Cpd #82]
Reply: 17.1

Ask: // query Kd value for entry {hexanoic acid}-SDCWLQWNCPFD[dK](DOTA)-NH2 (disulfide 3-9) [Cpd #75]
Reply: 9.6

Ask: // query Kd value for entry Ac-MSDCWLQ[Trp(7-aza)]NCPFD[dK](DOTA)-NH2 (disulfide 4-10) [Cpd #64]
Reply: 20.1
